Target: T1, human GIP receptor (human) (UniProt P48546)
T1 sequence (looked up): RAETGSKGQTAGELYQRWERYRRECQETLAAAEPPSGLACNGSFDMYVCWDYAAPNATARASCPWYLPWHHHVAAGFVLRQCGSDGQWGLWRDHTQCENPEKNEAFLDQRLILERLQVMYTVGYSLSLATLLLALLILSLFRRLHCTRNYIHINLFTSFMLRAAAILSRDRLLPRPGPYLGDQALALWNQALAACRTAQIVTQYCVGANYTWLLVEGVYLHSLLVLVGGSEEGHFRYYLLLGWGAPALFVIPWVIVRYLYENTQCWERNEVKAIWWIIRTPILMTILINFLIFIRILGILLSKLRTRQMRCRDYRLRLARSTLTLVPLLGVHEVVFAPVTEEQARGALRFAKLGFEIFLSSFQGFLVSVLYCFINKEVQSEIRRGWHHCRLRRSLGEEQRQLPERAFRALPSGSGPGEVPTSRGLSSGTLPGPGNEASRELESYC
Assay: cell-based or functional assay
Starred links: 1 amine or outer side, 2 acyl side, 3 side chain; linkers in the order of their positions; H or OH if unused. Non-standard residues stand in square brackets, D forms with d. Groups on a side chain read outwards from the residue. No end group written: not given here. *: point of attachment. C20 diacid = O=C(O)CCCCCCCCCCCCCCCCCCC(=O)*; C18 diacid = O=C(O)CCCCCCCCCCCCCCCCC(=O)*; αMePhe(2-F) = C[C@](N)(Cc1ccccc1F)C(=O)O; γGlu = O=C(O)[C@H](CCC(=O)[*:2])N[*:1]; αMeL = CC(C)C[C@](C)(N)C(=O)O; Dap = NC[C@H](N)C(=O)O; AEEA = NCCOCCOCC(=O)O; Aib = CC(C)(N)C(=O)O
MEASURE_NAME: Relative cAMP EC50 (nM)
Answers are plain numbers, in nM.

Below are worked cases with known answers.
BINDER: YXQGTFTSDXSQXLDKKAQXAFIEXLIEXGPSSGAPPPSGSEE (Aib, 4Pal, αMeL, Me4Pal; K (γGlu)2-C18 diacid; amide; synthetic construct; SITE 2: note = 2-Aminoisobutyric Acid; SITE 10: note = 3-(4-Pyridyl)-L-alanine; SITE 13: note = alpha-methyl-leucine; SITE 17: note = Lysine is chemically modified through conjugation of the epsilon-amino group of the Lysine side chain with (gamma-Glu)2-CO-(CH2)16-CO2H; SITE 20:) [Example 1122]
MEASURE_NAME: Relative cAMP EC50
MEAS_VALUE: 0.109
--
BINDER: YXQGTXTSDXSILLDKKAQXAFIEYLLEGGPSSGAPPPS (synthetic construct; SITE 2: note = 2-Aminoisobutyric Acid; SITE 6: note = alpha-methyl-L-phenylalanine; SITE 10: note = 3-(4-Pyridyl)-L-alanine; SITE 17: note = Lysine is chemically modified through conjugation of the epsilon-amino group of the Lysine side chain with (2-[2-(2-Amino-ethoxy)-ethoxy]-) [Example 418]
MEASURE_NAME: Relative cAMP EC50
MEAS_VALUE: 0.0153
--
BINDER: YXQGTXTSDYXIXLDXKAQXXFIEYLLEGGPSSGAPPPS (synthetic construct; SITE 2: note = 2-Aminoisobutyric Acid; SITE 6: note = alpha-methyl-2-fluoro-L-phenylalanine; SITE 11: note = alpha-methyl-L-serine; SITE 13: note = alpha-methyl-leucine; SITE 16: note = L-ornithine; SITE 17: note = Lysine is chemically modified through conjugation of the epsilon) [Example 384]
MEASURE_NAME: Relative cAMP EC50
MEAS_VALUE: 0.0152
--
BINDER: YXQGTFTSDXXQXLDXKAQXQFIEXLIAXGPSSGAPPPSGGGE (not fully specified; non-natural residues; Lys acylated with γGlu-C18 diacid; C-terminal amide; synthetic construct; SITE 2: note = 2-Aminoisobutyric Acid; SITE 10: note = 3-(4-Pyridyl)-L-alanine; SITE 11: note = alpha-methyl-L-serine; SITE 13: note = alpha-methyl-leucine; SITE 16: note = L-ornithine; SITE 17: note = Lysine is chemically modified through conjugation of the epsilon-amino group) [Example 1185]
MEASURE_NAME: Relative cAMP EC50
MEAS_VALUE: 0.0266
--
BINDER: YXQGTFTSDXSQXLDKKAQXAFIEXLIEXGPSSGAPPPSGTE (Lys acylated with (γGlu)2-C18 diacid; non-natural residues; C-amide; synthetic construct; SITE 2: note = 2-Aminoisobutyric Acid; SITE 10: note = 3-(4-Pyridyl)-L-alanine; SITE 13: note = alpha-methyl-leucine; SITE 17: note = Lysine is chemically modified through conjugation of the epsilon-amino group of the Lysine side chain with (gamma-Glu)2-CO-(CH2)16-CO2H; SITE 20:) [Example 1118]
MEASURE_NAME: Relative cAMP EC50
MEAS_VALUE: 0.128
--
BINDER: YXQGTXTSDXSIXLDXKAQXEFIEXLLEGGPSSGAPPPSGE (Aib, αMeF(2F), 4Pal, Orn, Me4Pal, αMeY; acylated lysine; amide; synthetic construct; SITE 2: note = 2-Aminoisobutyric Acid; SITE 6: note = alpha-methyl-2-fluoro-L-phenylalanine; SITE 10: note = 3-(4-Pyridyl)-L-alanine; SITE 13: note = alpha-methyl-leucine; SITE 16: note = L-ornithine; SITE 17: note = Lysine is chemically modified through conjugation of the epsil) [Example 615]
MEASURE_NAME: Relative cAMP EC50
MEAS_VALUE: 0.00825
--
BINDER: Y[Aib]QGTFTSDFS[Dap][αMeL]LDKK([AEEA-γGlu-C18 diacid])AQ[Aib]AFIEYLLE[Aib]GPSSGAPPPSGS-NH2 [Example 134]
MEASURE_NAME: Relative cAMP EC50
MEAS_VALUE: 0.152
--
BINDER: YXQGTXTSDYSIXLDKKAQXAFIEYLLETGPSSGAPPPSEG (synthetic construct; SITE 2: note = 2-Aminoisobutyric Acid; SITE 6: note = alpha-methyl-2-fluoro-L-phenylalanine; SITE 13: note = alpha-methyl-leucine; SITE 17: note = Lysine is chemically modified through conjugation of the epsilon-amino group of the Lysine side chain with (2-[2-(2-Amino-ethoxy)-et)) [Example 417]
MEASURE_NAME: Relative cAMP EC50
MEAS_VALUE: 0.0144

Count: 2. Required value per item: Relative cAMP EC50.
1. YXQGTXTSDXXIXLDXKAQXXFIEXLSEGGPSSGEPPPE (synthetic construct; SITE 2: note = 2-Aminoisobutyric Acid; SITE 6: note = alpha-methyl-2-fluoro-L-phenylalanine; SITE 10: note = 3-(4-Pyridyl)-L-alanine; SITE 11: note = alpha-methyl-L-serine; SITE 13: note = alpha-methyl-leucine; SITE 16: note = L-ornithine; SITE 17: note = Lysine is chemically mo) [Example 438]
2. YXQGTXTSDXXIXLDXKAAXEFIEXLIEGGPSSGEPPPSGSE (synthetic construct; SITE 2: note = 2-Aminoisobutyric Acid; SITE 6: note = alpha-methyl-2-fluoro-L-phenylalanine; SITE 10: note = 3-(4-Pyridyl)-L-alanine; SITE 11: note = alpha-methyl-L-serine; SITE 13: note = alpha-methyl-leucine; SITE 16: note = L-ornithine; SITE 17: note = Lysine is chemically mo) [Example 720]

-- reply
1: 0.225; 2: 0.0103

Fill in Relative cAMP EC50 for each of the 5 binders listed.
1. YXQGTFTSDXSQXLDXKAQXAFIEYLIQXGPSSGEPPPSGSEE (not fully specified; non-natural residues, γGlu-C18 diacid acyl on K, C-terminal amide; synthetic construct; SITE 2: note = 2-Aminoisobutyric Acid; SITE 10: note = 3-(4-Pyridyl)-L-alanine; SITE 13: note = alpha-methyl-leucine; SITE 16: note = L-ornithine; SITE 17: note = Lysine is chemically modified through conjugation of the epsilon-amino group of the Lysine side chain with D-Glutami) [Example 1102]
2. YXQGTXTSDXSIXLDXXAQXXFIEXLIEGGPSSGEPPPETE (synthetic construct; SITE 2: note = 2-Aminoisobutyric Acid; SITE 6: note = alpha-methyl-2-fluoro-L-phenylalanine; SITE 10: note = 3-(4-Pyridyl)-L-alanine; SITE 13: note = alpha-methyl-leucine; SITE 16: note = L-ornithine; SITE 17: note = Ornithine is chemically modified through conjugation of the ep) [Example 1209]
3. YXQGTFTSDFSXXLDKKAQXAFIEYLLEAGPSSGAPPPSGX (non-natural residues, acylated Lys, C-terminal amide; synthetic construct; SITE 2: note = 2-Aminoisobutyric Acid; SITE 12: note = L-ornithine; SITE 13: note = alpha-methyl-leucine; SITE 17: note = Lysine is chemically modified through conjugation of the epsilon-amino group of the Lysine side chain with (2-[2-(2-Amino-ethoxy)-ethoxy]-acetyl)-(gamma-Glu)) [Example 211]
4. YXQGTFTSDFSQXLDKKAQXAFIEYLLEXGESSGEPPPSGE (synthetic construct; SITE 2: note = 2-Aminoisobutyric Acid; SITE 13: note = alpha-methyl-leucine; SITE 17: note = Lysine is chemically modified through conjugation of the epsilon-amino group of the Lysine side chain with (2-[2-(2-Amino-ethoxy)-ethoxy]-acetyl)-(gamma-Glu)-CO-(CH2) 16-CO2H; SITE 20: n) [Example 790]
5. YXQGTXTSDXXIXLDXKAQXEFIEXLIEGGPPSXXPPPXSE (non-natural residues; lipidated Lys AEEA-γGlu-C18 diacid; C-term amide; synthetic construct; SITE 2: note = 2-Aminoisobutyric Acid; SITE 6: note = alpha-methyl-2-fluoro-L-phenylalanine; SITE 10: note = 3-(4-Pyridyl)-L-alanine; SITE 11: note = alpha-methyl-L-serine; SITE 13: note = alpha-methyl-leucine; SITE 16: note = L-ornithine; SITE 17: note = Lysine is chemically mo) [Example 1196]

-- reply
0.0418
0.00819
0.116
0.131
0.00756

Give Relative cAMP EC50 for each listed item.
1. YXQGTXTSDYSILLDKKAQXAFIEYLLEGGPSSGAPPPS (not fully specified; synthetic construct; SITE 2: note = 2-Aminoisobutyric Acid; SITE 6: note = alpha-methyl-2-fluoro-L-phenylalanine; SITE 17: note = Lysine is chemically modified through conjugation of the epsilon-amino group of the Lysine side chain with (2-[2-(2-Amino-ethoxy)-ethoxy]-acetyl)2-(gamma-Glu)-CO-(CH2 )18) [Example 385]
2. YXQGTFTSDXSQXLDKKAQXAFIEYLIAGGPSSGAPPPSGEEE (non-natural residues; acylated Lys; C-terminal amide; synthetic construct; SITE 2: note = 2-Aminoisobutyric Acid; SITE 10: note = 3-(4-Pyridyl)-L-alanine; SITE 13: note = alpha-methyl-leucine; SITE 17: note = Lysine is chemically modified through conjugation of the epsilon-amino group of the Lysine side chain with (Glu)-(gamma-Glu)-CO-(CH2)16-CO2H; SIT) [Example 1089]
3. YXQGTFTSDXSXXLDKKAQXAFIEYLIEXGESSGAPPPSGE (non-natural residues; Lys acylated C18 diacid; C-terminal amide; synthetic construct; SITE 2: note = 2-Aminoisobutyric Acid; SITE 10: note = 3-(4-Pyridyl)-L-alanine; SITE 12: note = L-ornithine; SITE 13: note = alpha-methyl-leucine; SITE 17: note = Lysine is chemically modified through conjugation of the epsilon-amino group of the Lysine side chain with (2-[2-(2-) [Example 222]
4. YXQGTXTSDXXIXLDXKAQXEFIEXLVEGGPSSGAPPPSGE (C-terminal amide; lysine acylated with (γ-Glu)2-C18 diacid; synthetic construct; SITE 2: note = 2-Aminoisobutyric Acid; SITE 6: note = alpha-methyl-2-fluoro-L-phenylalanine; SITE 10: note = 3-(4-Pyridyl)-L-alanine; SITE 11: note = alpha-methyl-L-serine; SITE 13: note = alpha-methyl-leucine; SITE 16: note = L-ornithine; SITE 17: note = Lysine is chemically mo) [Example 1160]
5. YXQGTXTSDXSIXLDKKAQXXFIEYLSEGGPSSGEPPPSGSEE (Aib, αMeF(2F), 4Pal, Orn; acylated lysine; amide; synthetic construct; SITE 2: note = 2-Aminoisobutyric Acid; SITE 6: note = alpha-methyl-2-fluoro-L-phenylalanine; SITE 10: note = 3-(4-Pyridyl)-L-alanine; SITE 13: note = alpha-methyl-leucine; SITE 17: note = Lysine is chemically modified through conjugation of the epsilon-amino group of the Lysine) [Example 637]
6. YXQGTFTSDXSQXLDKKAQXAFIEXLIEXGPSSGAPPPSGTGE (non-natural residues; Lys acylated AEEA-γGlu-C18 diacid; C-terminal amide; synthetic construct; SITE 2: note = 2-Aminoisobutyric Acid; SITE 10: note = 3-(4-Pyridyl)-L-alanine; SITE 13: note = alpha-methyl-leucine; SITE 17: note = Lysine is chemically modified through conjugation of the epsilon-amino group of the Lysine side chain with (2-[2-(2-Amino-ethoxy)-ethoxy]-acetyl)) [Example 1117]
7. YXQGTXTSDXXIXLDXKAQXEFIEXLIEGGPPSXXPPPXGS (non-natural residues, C-terminal amide, acylated Lys with fatty diacid; synthetic construct; SITE 2: note = 2-Aminoisobutyric Acid; SITE 6: note = alpha-methyl-2-fluoro-L-phenylalanine; SITE 10: note = 3-(4-Pyridyl)-L-alanine; SITE 11: note = alpha-methyl-L-serine; SITE 13: note = alpha-methyl-leucine; SITE 16: note = L-ornithine; SITE 17: note = Lysine is chemically mo) [Example 1189]

-- reply
1. 0.0141
2. 0.213
3. 0.228
4. 0.00773
5. 0.108
6. 0.124
7. 0.00597

For every record below, what is its Relative cAMP EC50?
1. YXQGTFTSDXSXXLDKKAQXAFIEYLIAGGPSSGEPPPSGTE (synthetic construct; SITE 2: note = 2-Aminoisobutyric Acid; SITE 10: note = 3-(4-Pyridyl)-L-alanine; SITE 12: note = L-ornithine; SITE 13: note = alpha-methyl-leucine; SITE 17: note = Lysine is chemically modified through conjugation of the epsilon-amino group of the Lysine side chain with (gamma-Gl)) [Example 980]
2. Y[Aib]QGT[αMePhe(2-F)]TSDYSILLDKIAAK([AEEA-γGlu-C20 diacid])AFIEYLIEGGPSSGEPPPSEG-NH2 [Example 296]

-- reply
1. 0.18
2. 0.0806
